# system_name: PARK7 (Homo sapiens, UniProt Q99497)
# assay_procedure: Hit validation and pure-compound testing in the PARK7 FP assay with JYQ-107
# Format: biochemical
# condition: crude compounds, 0.25 µM; read-out: % Inhibition 0.25 µM
endpoint_label: inhibition at 0.25 µM (%)

1: N#CN1CC[C@@H](C(=O)Nc2nc3c(s2)CN(C(=O)c2ccc(Cn4cc(Br)cn4)o2)CC3)C1 [Compound 140]
2: N#CN1CC[C@@H](C(=O)Nc2nc3c(s2)CN(C(=O)c2cccnc2Oc2ccc(Cl)cc2Cl)CC3)C1 [Compound 345]
Query string: Lower inhibition at 0.25 µM: 1 or 2 ? Kindly give the label for the entry you pick.
Result string: 1
(1: 36.9%, 2: 63.1%)

====

# system_name: PARK7 (Homo sapiens)
# condition: read-out: IC50 (nM) DiFUMAc; 0.1 μM PARK7, 1 h preincubation, 300 μM DiFMUAc
endpoint_label: IC50 (nM)

>>> quantitative_result("O=C1C(=O)N(CCc2ccccc2)c2ccc(F)cc21")
130
>>> quantitative_result("N#CN1CC[C@@H](C(=O)Nc2nc3c(s2)CN(C(=O)CN=[N+]=[N-])CC3)C1 [JYQ-88, reference compound]")
120

====

# system_name: PARK7 (Homo sapiens)
# Sequence (Q99497 1-189): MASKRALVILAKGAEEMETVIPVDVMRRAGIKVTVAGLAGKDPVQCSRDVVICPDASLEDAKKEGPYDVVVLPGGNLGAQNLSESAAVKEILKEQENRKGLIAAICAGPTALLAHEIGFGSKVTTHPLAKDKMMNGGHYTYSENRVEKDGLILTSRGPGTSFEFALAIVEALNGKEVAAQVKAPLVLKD
# assay_procedure: High-throughput screen of the crude compound library, PARK7 fluorescence polarization (FP) assay with FP reagent JYQ-107
# Assay type: biochemical
# condition: 1.25 µM, crude compound library; read-out: HTS FP assay %Inhibition (1.25 µM)
endpoint_label: inhibition at 1.25 µM (%)

>>> quantitative_result("N#CN1CC[C@@H](C(=O)Nc2nc3c(s2)CN(C(=O)C2CC(=O)N(CCOc4ccccc4Cl)C2)CC3)C1 (some centres unmarked)")
79.1
>>> quantitative_result("CN(C)S(=O)(=O)c1ccc(N2CCCCC2)c(C(=O)N2CCc3nc(NC(=O)[C@@H]4CCN(C#N)C4)sc3C2)c1")
56.1
>>> quantitative_result("Cc1ccc(-c2cc(C(=O)N3CCc4nc(NC(=O)[C@@H]5CCN(C#N)C5)sc4C3)[nH]n2)o1")
90.5

a: N#CN1CC[C@@H](C(=O)Nc2nc3c(s2)CN(C(=O)c2cn(CC(=O)N4CCCC4)nn2)CC3)C1
b: Cc1csc(N2CCC(C(=O)N3CCc4nc(NC(=O)[C@@H]5CCN(C#N)C5)sc4C3)CC2)n1
Query string: Lower inhibition at 1.25 µM: a or b ? Kindly give the label for the entry you pick.
Result string: b

a: Cn1nccc1[C@@H]1C[C@H]1C(=O)N1CCc2nc(NC(=O)[C@@H]3CCN(C#N)C3)sc2C1
b: Cc1cc(C(=O)N2CCc3nc(NC(=O)[C@@H]4CCN(C#N)C4)sc3C2)c(C)n1C1CC1
Query string: Lower inhibition at 1.25 µM: a or b ? Kindly give the label for the entry you pick.
Result string: b

P: N#CN1CC[C@@H](C(=O)Nc2nc3c(s2)CN(C(=O)c2occc2COc2ccccc2)CC3)C1
Q: N#CN1CC[C@@H](C(=O)Nc2nc3c(s2)CN(C(=O)C(F)(F)n2cc(-c4ccccc4)nn2)CC3)C1
Query string: Given P and Q , report the one with the higher recorded inhibition at 1.25 µM. Kindly give the label for the entry you pick.
Result string: P
(P: 82.9%, Q: 45.6%)
